assayed system: Upc2 (UniProt Q12151)
Sequence: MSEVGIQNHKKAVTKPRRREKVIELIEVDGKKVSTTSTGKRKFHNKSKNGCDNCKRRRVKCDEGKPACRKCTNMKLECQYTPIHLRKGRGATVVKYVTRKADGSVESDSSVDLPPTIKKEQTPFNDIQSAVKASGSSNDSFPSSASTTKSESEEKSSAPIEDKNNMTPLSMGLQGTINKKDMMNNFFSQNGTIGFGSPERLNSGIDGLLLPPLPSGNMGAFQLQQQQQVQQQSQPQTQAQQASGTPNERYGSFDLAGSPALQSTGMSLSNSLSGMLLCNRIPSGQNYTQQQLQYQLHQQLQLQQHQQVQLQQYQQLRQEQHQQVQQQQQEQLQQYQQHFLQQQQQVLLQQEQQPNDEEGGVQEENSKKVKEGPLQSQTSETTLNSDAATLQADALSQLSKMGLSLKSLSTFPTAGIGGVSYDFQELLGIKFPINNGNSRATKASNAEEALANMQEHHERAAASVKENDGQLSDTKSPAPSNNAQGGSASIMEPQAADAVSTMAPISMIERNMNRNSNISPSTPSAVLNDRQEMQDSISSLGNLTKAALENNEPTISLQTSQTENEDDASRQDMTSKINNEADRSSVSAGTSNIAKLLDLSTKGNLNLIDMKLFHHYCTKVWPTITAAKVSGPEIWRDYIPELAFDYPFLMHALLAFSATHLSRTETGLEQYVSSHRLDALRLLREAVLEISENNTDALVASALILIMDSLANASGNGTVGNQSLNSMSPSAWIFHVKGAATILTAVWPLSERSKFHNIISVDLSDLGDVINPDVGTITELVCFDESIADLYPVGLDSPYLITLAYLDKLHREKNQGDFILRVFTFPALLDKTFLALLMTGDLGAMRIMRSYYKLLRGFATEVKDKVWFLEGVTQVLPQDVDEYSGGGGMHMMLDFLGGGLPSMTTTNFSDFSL
method: PBM E-score (8-mer binding enrichment) (E-score (-0.5 to 0.5)); higher = stronger / more preferred TF binding
measurement parameters: protein concentration: 200 nM; construct: GST-full length
The full ranking holds about 33,000 sequences; the median of “E-score (-0.5 to 0.5)” is about -0.043, and the highest 2% start at about 0.37. The full list was thinned out, with the highest values kept by preference.
# PBM E-score per entry
Respond using a number only.

{"columns": ["sequence input", "assayed system", "quantitative readout"],
 "data": [
  ["CGTCGTGA", "Upc2 (UniProt Q12151)", 0.127],
  ["GGTCGTAA", "Upc2 (UniProt Q12151)", 0.421],
  ["CGCGTACC", "Upc2 (UniProt Q12151)", 0.302],
  ["ATATAGCA", "Upc2 (UniProt Q12151)", -0.0248],
  ["CTCGTACA", "Upc2 (UniProt Q12151)", 0.489]
]}

Qu. Requested field: PBM E-score. Item: `TGTCGTAA`
Ans. 0.433

Qu. What do you get for `GGTCGTGA` ?
Ans. -0.0444

Qu. What do you get for `GGTCGTCA` ?
Ans. -0.0836

Qu. What do you get for `AATTTGTC` ?
Ans. 0.0333

Qu. What do you get for `AGAGATGA` ?
Ans. -0.204

Qu. What do you get for `CTCGTACC` ?
Ans. 0.481
